- Tested on: Mus musculus
- experiment_notes: Antidepressant activity against reserpine-induced hypothermia CFLP mouse model assessed as change in esophageal temperature < 5 degC at 100 mg/kg, po treated before 2 to 24 hrs of reserpine challenge
- Format: functional, organism-based
- Design: dose 100 mg/kg
Calls of active or inactive are those of the source. The calls are words filed in the database; no cut-off is given here.
endpoint_label: Activity

compound: Cc1ccc(C(c2ccccc2)C(O)CN(C)C)cc1 (stereo unspecified)
observed_result: inactive

compound: NCC(O)C(c1ccccc1)c1ccccc1 (stereo unspecified)
observed_result: inactive

compound: OC(CNCc1ccccc1)C(c1ccccc1)c1ccccc1 (stereo unspecified)
observed_result: inactive

compound: CN(C)CC(O)C(c1ccccc1)C1CCCCC1 (stereo in doubt; 39b)
observed_result: inactive

compound: CN(C)CC(O)C(c1ccccc1)C1CCCCC1 (stereo in doubt; 39a)
observed_result: inactive

So, CC(O)(CN)C(c1ccccc1)c1ccccc1 (stereo unspecified) ? Its Activity was inactive
